Reference source for all entries: patent US12622968B2

- MEASUREMENT_DESCRIPTION: Single dose oral capsule pharmacokinetics of BHV-3500 in dogs (plasma LC-MS/MS)
- Type: in vivo, beagle dogs
- RUN_PARAMETERS: female, beagle, dog, plasma, po, 50 mg, Group 6, oral capsule, 50 mg BHV-3500 in 25 mg DDM; 1 h post-dose; individual dogs; read-out: BHV-3500 Concentration in Dog Plasma
ENDPOINT_NAME: concentration at 1 h (ng/mL)
One number for each entry, in ng/mL.

Which concentration at 1 h is listed for Cc1cc(C[C@@H](NC(=O)N2CCC(c3cc4ccccc4[nH]c3=O)CC2)C(=O)N2CCN(C3CCN(C)CC3)CC2)cc2cn[nH]c12 [BHV-3500] ? 2.42

###

- MEASUREMENT_DESCRIPTION: Single dose oral capsule pharmacokinetics of BHV-3500 in dogs (plasma LC-MS/MS)
- Format: in vivo, beagle dogs
- RUN_PARAMETERS: female, beagle, dog, plasma, po, 50 mg, Group 6, oral capsule, 50 mg BHV-3500 in 25 mg DDM; 1 h post-dose; average; read-out: BHV-3500 Concentration in Dog Plasma
ENDPOINT_NAME: concentration at 1 h (ng/mL)
One number for each entry, in ng/mL.

Which concentration at 1 h is listed for Cc1cc(C[C@@H](NC(=O)N2CCC(c3cc4ccccc4[nH]c3=O)CC2)C(=O)N2CCN(C3CCN(C)CC3)CC2)cc2cn[nH]c12 [BHV-3500] ? 2.42

###

- MEASUREMENT_DESCRIPTION: Single dose oral capsule pharmacokinetics of BHV-3500 in dogs (plasma LC-MS/MS)
- Type: in vivo, beagle dogs
- RUN_PARAMETERS: female, beagle, dog, plasma, po, 20 mg, Group 2, oral capsule, 20 mg BHV-3500 in 900 mg vehicle of Formulation 2 (SEDDS excipients); 2 h post-dose; average; read-out: BHV-3500 Concentration in Dog Plasma
ENDPOINT_NAME: concentration at 2 h (ng/mL)
Give bare numbers, in ng/mL.

Which concentration at 2 h is listed for Cc1cc(C[C@@H](NC(=O)N2CCC(c3cc4ccccc4[nH]c3=O)CC2)C(=O)N2CCN(C3CCN(C)CC3)CC2)cc2cn[nH]c12 [BHV-3500] ? 14.2

###

- MEASUREMENT_DESCRIPTION: Single dose oral capsule pharmacokinetics of BHV-3500 in dogs (plasma LC-MS/MS)
- Format: in vivo, beagle dogs
- RUN_PARAMETERS: female, beagle, dog, plasma, po, 50 mg, Group 4, oral capsule, 50 mg BHV-3500, no vehicle; median; read-out: Tmax
ENDPOINT_NAME: Tmax (h)
Answers are plain numbers, in h.

Which Tmax is listed for `Cc1cc(C[C@@H](NC(=O)N2CCC(c3cc4ccccc4[nH]c3=O)CC2)C(=O)N2CCN(C3CCN(C)CC3)CC2)cc2cn[nH]c12` ? 2

###

- MEASUREMENT_DESCRIPTION: Single dose oral capsule pharmacokinetics of BHV-3500 in dogs (plasma LC-MS/MS)
- Format: in vivo, beagle dogs
- RUN_PARAMETERS: female, beagle, dog, plasma, oral, 20 mg, Group 2, 20 mg with Vehicle 6; 2 hours post-dose; read-out: mean plasma exposure
ENDPOINT_NAME: concentration at 2 h

Which concentration at 2 h is listed for `Cc1cc(C[C@@H](NC(=O)N2CCC(c3cc4ccccc4[nH]c3=O)CC2)C(=O)N2CCN(C3CCN(C)CC3)CC2)cc2cn[nH]c12` ? 22 nM
